Reference source for all entries: PubChem BioAssay

Test Method Notes: cell viability in Huh7 cells, primary screen, cytotoxicity control for HCV replication inhibitor project, CellTiter-Glo luminescence, basal, 48 h (AID 1143);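 also: Huh7 hepatoma cells carrying a hepatitis C replication reporter with no stimulus; test concentration not given here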
Assay Setup: Huh7 HCV replicon, higher = more signal, called active from +8 up or from −8 down
Active and inactive are the calls of the source.
Metric: z-score

Some entries whose results are on file:
1) CCOC(=O)C1=CC[C@@H](c2ccccc2)N(S(=O)(=O)C[Si](C)(C)C)[C@H]1c1ccccc1 :: -2.78 (inactive)
2) COc1ccc(CCNC(=O)[C@@]2(Sc3ccc(C)cc3)CC(=O)N(C(C)C)[C@@H]2c2ccc(CO)cc2)cc1 :: -0.583 (inactive)
3) C#CCN(C/C=C/c1ccccc1)[C@H](CO[Si](C)(C)C(C)(C)C)c1ccccc1 :: -0.832 (inactive)

Lookup: z-score lookup needed for `CCCCC(=C=CC[C@@H](O)c1cccc(OCCO)c1)C[C@@H](O)COCc1ccccc1` , thanks.
Found: -2.51 (inactive)
